pIC50 listing for selected compounds.
target: Toll-like receptor 8 (Homo sapiens, UniProt Q9NR97); test: Negative modulator activity at human TLR8 expressed in HEK-Blue hTLR8 cells assessed as inhibition of TL8-506 stimulated NF-kappaB activation preincubated with compound for 1 hr followed by TL8-506 stimulation for 24 hrs by SEAP-based colorimetric assay; format: cell-based; conditions: read-out: IC50
Sequence (Q9NR97 whole entry): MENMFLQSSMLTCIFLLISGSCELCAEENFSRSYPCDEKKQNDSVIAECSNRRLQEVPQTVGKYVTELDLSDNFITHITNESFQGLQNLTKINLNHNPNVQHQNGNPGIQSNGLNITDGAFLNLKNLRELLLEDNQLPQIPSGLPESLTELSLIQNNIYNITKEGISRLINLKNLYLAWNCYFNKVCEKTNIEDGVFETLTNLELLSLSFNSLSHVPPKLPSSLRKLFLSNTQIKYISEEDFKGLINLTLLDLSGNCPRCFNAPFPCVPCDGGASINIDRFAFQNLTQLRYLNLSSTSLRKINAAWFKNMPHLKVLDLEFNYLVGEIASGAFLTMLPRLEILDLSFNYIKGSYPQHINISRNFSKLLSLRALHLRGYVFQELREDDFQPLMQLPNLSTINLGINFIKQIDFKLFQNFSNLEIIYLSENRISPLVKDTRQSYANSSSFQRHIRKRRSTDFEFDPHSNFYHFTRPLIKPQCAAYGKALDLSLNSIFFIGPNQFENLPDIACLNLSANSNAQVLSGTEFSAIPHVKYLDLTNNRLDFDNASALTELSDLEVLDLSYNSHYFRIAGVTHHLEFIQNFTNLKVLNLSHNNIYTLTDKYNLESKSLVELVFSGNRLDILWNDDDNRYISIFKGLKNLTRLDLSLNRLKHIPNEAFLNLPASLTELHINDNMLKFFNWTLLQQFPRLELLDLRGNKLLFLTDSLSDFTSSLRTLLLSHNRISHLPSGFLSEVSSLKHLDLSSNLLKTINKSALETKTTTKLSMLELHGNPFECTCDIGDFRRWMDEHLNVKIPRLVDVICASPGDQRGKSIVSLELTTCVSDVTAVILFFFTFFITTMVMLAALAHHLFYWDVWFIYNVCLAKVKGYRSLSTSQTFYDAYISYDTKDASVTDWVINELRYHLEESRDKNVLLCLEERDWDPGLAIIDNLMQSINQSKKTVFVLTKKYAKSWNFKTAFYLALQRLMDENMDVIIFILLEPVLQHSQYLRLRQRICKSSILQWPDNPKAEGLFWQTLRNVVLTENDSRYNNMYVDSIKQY
pIC50: −log10 of the molar value.
quantity-kind: pIC50

[[record]]
smiles_str = "Oc1ccc(CNc2nc(-c3ccco3)cc(C(F)(F)F)n2)cc1"
target_of_assay = "Toll-like receptor 8 (Homo sapiens, UniProt Q9NR97)"
comparison_symbol = "="
quantitative_result = 4.96

[[record]]
smiles_str = "Oc1cccc(CNc2nc(C3CCCCC3)cc(C(F)(F)F)n2)c1"
target_of_assay = "Toll-like receptor 8 (Homo sapiens, UniProt Q9NR97)"
comparison_symbol = "="
quantitative_result = 4.66

[[record]]
smiles_str = "FC(F)(F)c1cc(-c2ccco2)nc(NCc2ccccc2)n1"
target_of_assay = "Toll-like receptor 8 (Homo sapiens, UniProt Q9NR97)"
comparison_symbol = "<"
quantitative_result = 4.00

[[record]]
smiles_str = "FC(F)(F)c1cc(-c2ccco2)nc(Nc2ccccc2)n1"
target_of_assay = "Toll-like receptor 8 (Homo sapiens, UniProt Q9NR97)"
comparison_symbol = "="
quantitative_result = 4.11

[[record]]
smiles_str = "FC(F)(F)c1cc(-c2ccco2)nc(NCCc2ccccc2)n1"
target_of_assay = "Toll-like receptor 8 (Homo sapiens, UniProt Q9NR97)"
comparison_symbol = "<"
quantitative_result = 4.00

[[record]]
smiles_str = "Oc1cccc(CNc2nc(-c3ccco3)cc(C(F)(F)F)n2)c1"
target_of_assay = "Toll-like receptor 8 (Homo sapiens, UniProt Q9NR97)"
comparison_symbol = "="
quantitative_result = 4.64


----------
test: Cytotoxicity against human HEK-Blue hTLR8 cells assessed as reduction in cell viability at 50 uM by MTT assay; assay type: cell-based; details: HEK-Blue hTLR8 cells, read-out: INH
quantity-kind: cytotoxicity at 50 µM (%)

[[record]]
smiles_str = "FC(F)(F)c1cc(-c2ccccc2)nc(NCc2cccs2)n1"
quantitative_result = 40


Where do these numbers come from? They come from ChEMBL document CHEMBL4828757.
